Test target: CFTR-mediated chloride transport in human intestinal epithelial enteroid cells (Homo sapiens, UniProt P13569)
Sequence (P13569 with tags, fused parts or gaps DEL508-508): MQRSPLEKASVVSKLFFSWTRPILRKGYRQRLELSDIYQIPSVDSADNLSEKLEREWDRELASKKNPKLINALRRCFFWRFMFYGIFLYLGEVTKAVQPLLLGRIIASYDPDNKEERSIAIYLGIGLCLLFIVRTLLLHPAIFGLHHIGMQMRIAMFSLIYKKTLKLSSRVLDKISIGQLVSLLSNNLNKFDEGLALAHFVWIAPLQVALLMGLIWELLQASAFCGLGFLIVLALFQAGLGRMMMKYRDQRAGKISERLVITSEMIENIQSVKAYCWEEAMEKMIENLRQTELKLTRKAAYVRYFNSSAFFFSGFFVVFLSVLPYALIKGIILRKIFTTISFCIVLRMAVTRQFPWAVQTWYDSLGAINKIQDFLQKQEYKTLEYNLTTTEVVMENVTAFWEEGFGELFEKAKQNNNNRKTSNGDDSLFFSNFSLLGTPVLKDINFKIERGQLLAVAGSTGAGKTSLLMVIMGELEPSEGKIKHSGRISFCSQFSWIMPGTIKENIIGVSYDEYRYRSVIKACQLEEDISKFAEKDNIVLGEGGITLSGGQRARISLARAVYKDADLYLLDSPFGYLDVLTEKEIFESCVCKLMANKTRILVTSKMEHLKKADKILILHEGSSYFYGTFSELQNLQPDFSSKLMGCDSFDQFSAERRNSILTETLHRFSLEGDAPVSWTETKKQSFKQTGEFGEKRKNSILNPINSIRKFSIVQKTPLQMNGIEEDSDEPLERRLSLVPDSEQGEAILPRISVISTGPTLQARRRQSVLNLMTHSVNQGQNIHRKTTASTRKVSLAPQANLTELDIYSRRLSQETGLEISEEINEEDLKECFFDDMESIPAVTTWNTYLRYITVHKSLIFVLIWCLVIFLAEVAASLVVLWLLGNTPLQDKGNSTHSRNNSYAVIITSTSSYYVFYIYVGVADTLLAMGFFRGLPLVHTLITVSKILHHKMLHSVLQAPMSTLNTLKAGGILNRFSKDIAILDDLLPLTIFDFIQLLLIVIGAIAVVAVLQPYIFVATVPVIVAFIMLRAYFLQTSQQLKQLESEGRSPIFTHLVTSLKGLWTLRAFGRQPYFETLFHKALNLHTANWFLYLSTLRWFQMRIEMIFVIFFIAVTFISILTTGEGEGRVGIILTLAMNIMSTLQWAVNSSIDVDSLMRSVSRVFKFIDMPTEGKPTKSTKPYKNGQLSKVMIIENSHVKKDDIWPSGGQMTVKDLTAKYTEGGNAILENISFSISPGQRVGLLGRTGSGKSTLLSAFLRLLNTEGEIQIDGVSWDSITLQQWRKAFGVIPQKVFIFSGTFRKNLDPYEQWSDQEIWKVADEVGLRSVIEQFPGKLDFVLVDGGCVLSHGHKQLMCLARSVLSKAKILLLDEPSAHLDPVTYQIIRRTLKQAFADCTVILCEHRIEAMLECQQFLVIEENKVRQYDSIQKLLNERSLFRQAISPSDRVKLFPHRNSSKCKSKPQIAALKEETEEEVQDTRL
Method summary: Membrane potential dye, Enteroid Assay A
Type: cell-based
Details: Enteroid Assay A
Reported endpoint: Ent. A Max Activity (%)

query_smiles=Cc1cccc(C)c1-c1cc2nc(n1)NS(=O)(=O)c1cccc(c1)C(=O)N1CCN(C3CC4(CCCC4)C3)C[C@H](C1)O2 result="+++ (+++ is >600%)"
query_smiles=Cc1cccc(C)c1-c1cc2nc(n1)NS(=O)(=O)c1cccc(c1)C(=O)N1C[C@@H](CN(C)C[C@@H]1CC(C)(C)C)O2 result="+++ (+++ is >600%)"
query_smiles=Cc1cccc(C)c1-c1cc2nc(n1)NS(=O)(=O)c1cccc(c1)C(=O)N1C[C@@H](CN(CC(C)(C)C)[C@@H](CC(C)C)C1)O2 result="+++ (+++ is >600%)"

====

Test target: CFTR-mediated chloride transport in human intestinal epithelial enteroid cells (Homo sapiens, UniProt P13569)
Method summary: Membrane potential dye, Enteroid Assay A
Assay type: cell-based
Details: Enteroid Assay A
Procedure: Base medium (ADF+++) consisted of Advanced DMEM/Ham's F12, 2 mM Glutamax, 10 mM HEPES, […] penicillin/streptomycin. Bath 1 Buffer consisted of 1 mM MgCl2, 160 mM NaCl, 4.5 mM KCl, 10 mM HEPES, 10 mM Glucose, 2 mM CaCl2. […] Briefly, cells were washed 5 times in Bath 1 Buffer. […] Chloride transport was initiated by addition of Chloride Free Dye Stimulation Solution and the fluorescence signal was read for 15 min. […]
Reported endpoint: Ent. A Max Activity (%)

compound="Cc1cccc(C)c1-c1cc2nc(n1)NS(=N)(=O)c1cccc(c1)C(=O)N1CCN(C(=O)OC(C)(C)C)CC(C1)O2 (stereo not drawn) [Compound 239]" result="+++ (+++ is >600%)"
compound="Cc1cccc(C)c1-c1cc2nc(n1)NS(=N)(=O)c1cccc(c1)C(=O)N1CCNCC(C1)O2 (stereo not drawn) [Compound 241]" result="+ (+ is <30%)"
compound="Cc1cccc(C)c1-c1cc2nc(n1)NS(=O)(=O)c1cccc(c1)C(=O)N1C[C@@H](CN(CCC(C)(C)C)[C@@H](CC(C)C)C1)O2 [Compound 155]" result="+++ (+++ is >600%)"
compound="Cc1cccc(C)c1-c1cc2nc(n1)NS(=O)(=O)c1cccc(c1)C(=O)N1CCN(C3CCC4(CC3)COC4)C[C@H](C1)O2 [Compound 41]" result="+++ (+++ is >600%)"
compound="CCN1CCN2C[C@@H](C1)Oc1cc(-c3c(C)cccc3C)nc(n1)NS(=O)(=O)c1cccc(c1)C2=O [Compound 74]" result="+++ (+++ is >600%)"
compound="Cc1cccc(C)c1-c1cc2nc(n1)NS(=O)(=O)c1cccc(c1)C(=O)N1C[C@@H](CN(C3CC4(CCCCC4)C3)C[C@H]1CC(C)C)O2 [Compound 140]" result="+++ (+++ is >600%)"
compound="Cc1cccc(C)c1-c1cc2nc(n1)NS(=O)(=O)c1cccc(c1)C(=O)N1CCN(CC3(C)CCOCC3)C[C@H](C1)O2 [Compound 14]" result="+++ (+++ is >600%)"
compound="Cc1cccc(C)c1-c1cc2nc(n1)NS(=N)(=O)c1cccc(c1)C(=O)N1CCN(CCC(C)(C)C)C[C@H](C1)O2 (single isomer, unassigned) [Compound 244]" result="+ (+ is <30%)"
compound="Cc1cccc(C)c1-c1cc2nc(n1)NS(=O)(=O)c1cccc(c1)C(=O)N1C[C@@H](CN(C3CC4(CCCC4)C3)C[C@@H]1C(C)C)O2 [Compound 147]" result="+++ (+++ is >600%)"
compound="Cc1cccc(C)c1-c1cc2nc(n1)NS(=O)(=O)c1cccc(c1)C(=O)N1CC(O2)C2CCCN(C)C2C1 (single isomer, unassigned) [Compound 201]" result="++ (++ is 30-60%)"
compound="Cc1cccc(C)c1-c1cc2nc(n1)NS(=O)(=O)c1cccc(c1)C(=O)N1CCN(C3CC(C)(C)C3)C[C@H](C1)O2 [Compound 24]" result="++ (++ is 30-60%)"
compound="Cc1cccc(C)c1-c1cc2nc(n1)NS(=O)(=O)N1CCc3ccc(cc31)C(=O)N1Cc3ccccc3[C@@H](O2)[C@H]1CC(C)C [Compound 249]" result="++ (++ is 30-60%)"
compound="Cc1cccc(C)c1-c1cc2nc(n1)NS(=O)(=O)c1cccc(c1)C(=O)N1CCN(C3CC4(CCCC4)C3)C[C@@H](O2)[C@H]1CC(C)C [Compound 83]" result="+++ (+++ is >600%)"
compound="Cc1cccc(C)c1-c1cc2nc(n1)NS(=O)(=O)c1cccc(c1)C(=O)N1CCN(C(=O)OC(C)(C)C)[C@H](CC(C)C)[C@H](C1)O2 [Compound 114]" result="+++ (+++ is >600%)"
compound="Cc1cccc(C)c1-c1cc2nc(n1)NS(=O)(=O)c1cccc(c1)C(=O)N1C[C@@H](CN(C(=O)OC(C)(C)C)C[C@H]1CC(C)C)O2 [Compound 102]" result="++ (++ is 30-60%)"
compound="Cc1cccc(C)c1-c1cc2nc(n1)NS(=O)(=O)c1cccc(c1)C(=O)N1CCN(C3CCC(C)(C)C3)C[C@H](C1)O2 (single isomer, unassigned) [Compound 36]" result="+++ (+++ is >600%)"
compound="Cc1cccc(C)c1-c1cc2nc(n1)NS(=O)(=O)c1cccc(c1)CN1C[C@@H](CN(Cc3ccccc3)CC1=O)O2 (stereo in doubt) [Compound 144]" result="++ (++ is 30-60%)"
compound="Cc1cccc(C)c1-c1cc2nc(n1)NS(=O)(=O)c1cccc(c1)C(=O)N1CCN(C3C(C)(C)CC3(C)C)C[C@H](C1)O2 [Compound 20]" result="+++ (+++ is >600%)"
compound="Cc1cccc(C)c1-c1cc2nc(n1)NS(=O)(=O)c1cccc(c1)C(=O)N1CCN([C@@H](C)C(C)(C)C)C[C@H](C1)O2 (single isomer, unassigned) [Compound 72]" result="+++ (+++ is >600%)"
compound="Cc1cccc(C)c1-c1cc2nc(n1)NS(=O)(=O)c1cccc(c1)C(=O)N1C[C@@H](CN(C)C[C@H]1CC(C)C)O2 [Compound 103]" result="+++ (+++ is >600%)"
compound="Cc1cccc(C)c1-c1cc2nc(n1)NS(=O)(=O)c1cccc(c1)C(=O)N1C[C@H](CN(C(=O)OC(C)(C)C)C[C@@H]1CC(C)C)O2 [Compound 100]" result="+ (+ is <30%)"
compound="Cc1cccc(C)c1-c1cc2nc(n1)NS(=N)(=O)c1cccc(c1)C(=O)N1CCN(C(=O)OC(C)(C)C)CC(C1)O2 (stereo not drawn) [Compound 240]" result="++ (++ is 30-60%)"
compound="Cc1cccc(C)c1-c1cc2nc(n1)NS(=O)(=O)c1cccc(c1)C(=O)N1CCN(C3CCOCC3)C[C@H](C1)O2 [Compound 28]" result="+++ (+++ is >600%)"
compound="Cc1cccc(C)c1-c1cc2nc(n1)NS(=O)(=O)c1cccc(c1)C(=O)N1C[C@@H](CN(C3CC4(CCCC4)C3)C[C@@H]1CC(C)C)O2 [Compound 97]" result="++ (++ is 30-60%)"

====

Test target: CFTR-mediated chloride transport in human intestinal epithelial enteroid cells (Homo sapiens)
Method summary: Membrane potential dye, Enteroid Assay A
Type: cell-based
Details: percentage of chloride transport of triple combination control (3 μM N-[(6-amino-2-pyridyl)sulfonyl]-6-(3-fluoro-5-isobutoxy-phenyl)-2-[(4S)-2,2,4-trimethylpyrrolidin-1-yl]pyridine-3-carboxamide based)
Reported endpoint: Ent. A Max Activity (%)

molecule="Cc1cccc(C)c1-c1cc2nc(n1)NS(=O)(=O)c1cccc(c1)CCC(=O)N1CCCC(C1)O2 (stereo not shown) [Compound 353]" result="+ (+ is <300%)"
molecule="Cc1cccc(C)c1-c1cc2nc(n1)NS(=O)(=O)c1cccc(c1)C(=O)N1CCN(Cc3cncn3C)C[C@@H]1CO2 [Compound 279]" result="+ (+ is <300%)"
molecule="Cc1cccc(C)c1-c1cc2nc(n1)NS(=O)(=O)c1cccc(c1)C(=O)N1CC[C@@H](C1)O2 [Compound 213]" result="+++ (+++ is >60%)"
molecule="Cc1cccc(C)c1-c1cc2nc(n1)NS(=O)(=O)c1cccc(c1)C(=O)N1CCN(Cc3ccccc3C#N)C[C@@H]1CO2 [Compound 266]" result="+++ (+++ is >60%)"

====

Test target: CFTR-mediated chloride transport in human intestinal epithelial enteroid cells (Homo sapiens)
Method summary: Membrane potential dye, Enteroid Assay A
Format: cell-based
Details: enteroid cells incubated with test compound 18-24 hours; acute 10 μM forskolin and 300 nM N-[2,4-bis(1,1-dimethylethyl)-5-hydroxyphenyl]-1,4-dihydro-4-oxoquinoline-3-carboxamide; read-out: Ent. A EC50
Quick reference: EC50 of the listed items.
Reported endpoint: EC50

molecule="Cc1cccc(C)c1-c1cc2nc(n1)NS(=O)(=O)c1cccc(c1)C(=O)N1CCN(Cc3ccccc3)C(CO2)C1 (stereo not shown) [Compound 178]" result="< 1000 nM"
molecule="Cc1cccc(C)c1-c1cc2nc(n1)NS(=O)(=O)c1cc(n(C)c1)CC(=O)N1Cc3ccccc3C(C1)O2 (stereo not shown) [Compound 348]" result="1000 to 3000 nM"
molecule="Cc1cccc(C)c1-c1cc2nc(n1)NS(=O)(=O)c1cccc(c1)C(=O)N1CCN(CCC(C)CC(C)(C)C)CC(C1)O2 (stereo not shown) [Compound 62]" result="< 1000 nM"
molecule="Cc1cccc(C)c1-c1cc2nc(n1)NS(=O)(=O)c1cccc(c1)CN1CC(COCC(C)(C)C)CC(C1)O2 (stereo not shown) [Compound 344]" result="< 1000 nM"
molecule="Cc1cccc(C)c1-c1cc2nc(n1)NS(=O)(=O)c1cccc(c1)C(=O)N1CCN(Cc3sccc3Oc3ccccc3)CC(C1)O2 (stereo not shown) [Compound 61]" result="< 1000 nM"
molecule="Cc1cccc(C)c1-c1cc2nc(n1)NS(=O)(=O)c1cccc(c1)C(=O)N1CCN(CC3CCCC3)C[C@@H]1CO2 [Compound 260]" result="< 1000 nM"
molecule="Cc1cccc(C)c1-c1cc2nc(n1)NS(=O)(=O)c1cc(ccn1)C(=O)N1Cc3ccccc3C(C1)O2 (stereo not shown) [Compound 343]" result="1000 to 3000 nM"

Entry source: patent US20240018161A1
